Where do these numbers come from? They come from ChEMBL document CHEMBL4257549.

Reported pIC50 values are given for each entry in this list.
Test system: PC-3
Procedure text: Cytotoxicity against human PC3 cells after 48 hrs by MTT assay
Assay type: functional, cell-based
Experimental conditions: PC-3, 48 h
pIC50 field: float, defined as -log10 of concentration (mol/L).

[
  {
    "Smiles string": "COc1ccc2c(c1)nc(/C=C1\\SC(=S)N(CC(=O)O)C1=O)n2Cc1ccccc1F",
    "Observed property": "pIC50",
    "Recorded number": 4.61
  },
  {
    "Smiles string": "O=C(O)CN1C(=O)/C(=C/c2nc3ccccc3n2Cc2ccc(C(F)(F)F)cc2)SC1=S",
    "Observed property": "pIC50",
    "Recorded number": 4.64
  },
  {
    "Smiles string": "O=C(O)CN1C(=O)/C(=C/c2nc3ccccc3n2Cc2ccccc2F)SC1=S",
    "Observed property": "pIC50",
    "Recorded number": 5.73
  },
  {
    "Smiles string": "Cc1ccc(C(=O)Cn2c(/C=C3\\SC(=S)N(CC(=O)O)C3=O)nc3ccccc32)cc1",
    "Observed property": "pIC50",
    "Recorded number": 5.06
  },
  {
    "Smiles string": "O=C(O)CN1C(=O)/C(=C/c2nc3ccccc3n2Cc2ccc(F)c(F)c2)SC1=S",
    "Observed property": "pIC50",
    "Recorded number": 5.22
  },
  {
    "Smiles string": "O=C(O)CN1C(=O)/C(=C/c2nc3ccccc3n2Cc2ccc(F)cc2)SC1=S",
    "Observed property": "pIC50",
    "Recorded number": 5.31
  }
]

Enquiry: Please report the recorded pIC50 for COc1ccc2c(c1)nc(/C=C1\SC(=S)N(CC(=O)O)C1=O)n2Cc1ccc(C)cc1 .
Return: 5.44

Enquiry: Please report the recorded pIC50 for Cc1ccc(Cn2c(/C=C3\SC(=S)N(CC(=O)O)C3=O)nc3cc(F)ccc32)cc1 .
Return: 4.99

Enquiry: Please report the recorded pIC50 for O=C(O)CN1C(=O)/C(=C/c2nc3ccc(Cl)cc3n2Cc2ccccc2F)SC1=S .
Return: 4.76

Enquiry: Please report the recorded pIC50 for Cc1ccc(Cn2c(/C=C3\SC(=S)NC3=O)nc3ccccc32)cc1 .
Return: 5.01
